- TARGET UNDER TEST: feline FcRn complex (FcRn-α subunit and β-microglobulin), biotin labeled (feline)
- ASSAY NAME: SPR, pH 7.4
VALUE TYPE: Kd (µM)
Write down the numeric answer in µM and omit the unit.

[[record]]
binder = "feline IgG1a S252Y/Q311W (antibody, part only; not given: Variable domains, not shown: another chain or arm of the molecule) constant: ASTTAPSVFPLAPSCGTTSGATVALACLVLGYFPEPVTVSWNSGALTSGVHTFPAVLQASGLYSLSSMVTVPSSRWLSDTFTCNVAHPPSNTKVDKTVRKTDHPPGPKPCDCPKCPPPEMLGGPSIFIFPPKPKDTLYISRTPEVTCLVVDLGPDDSDVQITWFVDNTQVYTAKTSPREEQFNSTYRVVSVLPILHWDWLKGKEFKCKVNSKSLPSPIERTISKAKGQPHEPQVYVLPPAQEELSRNKVSVTCLIKSFHPPDIAVEWEITGQPEPENNYRTTPPQLDSDGTYFVYSKLSVDRSHWQRGNTYTCSVSHEALHSHHTQKSLTQSPGK"
value_type = "Kd"
unit_spec = "µM"
experimental_value = 0.953


Now let's try a different one.
## Task Could you tell me which Kd is on file for feline IgG1a S254V (antibody, part only; not given: Variable domains, not shown: another chain or arm of the molecule) constant: ASTTAPSVFPLAPSCGTTSGATVALACLVLGYFPEPVTVSWNSGALTSGVHTFPAVLQASGLYSLSSMVTVPSSRWLSDTFTCNVAHPPSNTKVDKTVRKTDHPPGPKPCDCPKCPPPEMLGGPSIFIFPPKPKDTLSIVRTPEVTCLVVDLGPDDSDVQITWFVDNTQVYTAKTSPREEQFNSTYRVVSVLPILHQDWLKGKEFKCKVNSKSLPSPIERTISKAKGQPHEPQVYVLPPAQEELSRNKVSVTCLIKSFHPPDIAVEWEITGQPEPENNYRTTPPQLDSDGTYFVYSKLSVDRSHWQRGNTYTCSVSHEALHSHHTQKSLTQSPGK ?
## Result 49.8
